# System: Ba/F3-c-KIT(D816V)
# Run Description: Proliferation inhibitory activity on Ba/F3 cell (CellTiter-Glo, 72 hours), c-KIT(D816V)
# Assay type: cell-based
# Reported Conditions: Mus musculus, BaF3, read-out: Ba/F3 (nM) c-KIT (D816V) (GI50 class)
Recorded Metric: GI50

- Compound Smiles: "COc1cc2ncnc(-c3ccc(NC(=O)Cc4ccc(C(F)(F)F)cc4)cc3)c2cc1OCCCN1C[C@@H]2C[C@H]1CN2C"
  Assayed System: "Ba/F3-c-KIT(D816V)"
  GI50: "≤ 200 nM"
- Compound Smiles: "COc1cc2c(-c3ccc(NC(=O)Cc4ccc(C(F)(F)F)cc4)cc3)ncnc2cc1OCCCN1C[C@@H]2C[C@H]1CN2C"
  Assayed System: "Ba/F3-c-KIT(D816V)"
  GI50: "≤ 200 nM"
- Compound Smiles: "CCN1CCC(Oc2cc3c(-c4ccc(NC(=O)Cc5ccc(C(F)(F)F)cc5)cc4)ncnc3cc2OC)CC1"
  Assayed System: "Ba/F3-c-KIT(D816V)"
  GI50: "≤ 200 nM"
- Compound Smiles: "COc1cc2c(-c3ccc(NC(=O)Cc4ccc(C(F)(F)F)cc4)cc3)ncnc2cc1OCCCN1CC2(CNC2)C1"
  Assayed System: "Ba/F3-c-KIT(D816V)"
  GI50: "> 500 nM"
- Compound Smiles: "COc1cc2ncnc(-c3ccc(NC(=O)Cc4ccc(C(F)(F)F)cc4)cc3)c2cc1OCCCN1CCCC1"
  Assayed System: "Ba/F3-c-KIT(D816V)"
  GI50: "≤ 200 nM"
- Compound Smiles: "CCN1CCC(COc2cc3ncnc(-c4ccc(NC(=O)Cn5cc(C(C)C)nn5)cc4)c3cc2OC)CC1"
  Assayed System: "Ba/F3-c-KIT(D816V)"
  GI50: "≤ 200 nM"

Problem: # value lookup — system Ba/F3-c-KIT(D816V), readout GI50, item "COc1cc2c(-c3ccc(NC(=O)Cn4cc(C(C)C)nn4)cc3)ncnc2cc1OCC1CCNCC1"
Solution: > 500 nM

* * *

# Tested on: Ba/F3-c-KIT(D816V)
# Run Description: Proliferation inhibitory activity on Ba/F3 cell (CellTiter-Glo, 72 hours), c-KIT(D816V)
# Format: cell-based
# Reported Conditions: Mus musculus, BaF3, read-out: Ba/F3 (nM) c-KIT (D816V) (GI50 class)
Recorded Metric: GI50

# count of solved cases: 5
- Compound: "CCN1CC2(C1)CN(CCCOc1cc3c(-c4ccc(NC(=O)Cc5ccc(C(F)(F)F)cc5)cc4)ncnc3cc1OC)C2"
  GI50: "> 500 nM"
- Compound: "CCN1CCCC(COc2cc3ncnc(-c4ccc(NC(=O)Cc5ccc(C(F)(F)F)cc5)cc4)c3cc2OC)C1 (stereo not drawn)"
  GI50: "≤ 200 nM"
- Compound: "COc1cc2c(-c3ccc(NC(=O)Cc4ccc(C(F)(F)F)cc4)cc3)ncnc2cc1OC[C@H]1CCCNC1"
  GI50: "≤ 200 nM"
- Compound: "COc1cc2c(-c3ccc(NC(=O)CCc4ccccc4)cc3)ncnc2cc1OCC1CCNCC1"
  GI50: "≤ 200 nM"
- Compound: "COCCN1CC(Oc2cc3ncnc(-c4ccc(NC(=O)Cc5ccc(C(F)(F)F)cc5)cc4)c3cc2OC)C1"
  GI50: "≤ 200 nM"

Problem: If you can, please state the reported GI50 value of "CCN1CCC(COc2cc3ncnc(-c4ccc(NC(=O)Cc5ccc(Cl)nc5)cc4)c3cc2OC)CC1" .
Solution: ≤ 200 nM

Problem: If you can, please state the reported GI50 value of "COc1cc2c(-c3ccc(NC(=O)Cc4ccc(C(F)(F)F)cc4)cc3)ncnc2cc1OCCCN1CC(N(C)C)C1" .
Solution: ≤ 200 nM

Problem: If you can, please state the reported GI50 value of "COc1ccc(CN2CC(Oc3cc4ncnc(-c5ccc(NC(=O)Cc6ccc(C(F)(F)F)cc6)cc5)c4cc3OC)C2)cc1" .
Solution: ≤ 200 nM

Problem: If you can, please state the reported GI50 value of "COc1cc2c(-c3ccc(NC(=O)Cn4cc(C(C)(C)C)nn4)cc3)ncnc2cc1OCC1CCNCC1" .
Solution: > 500 nM

Problem: If you can, please state the reported GI50 value of "COc1cc2c(-c3ccc(NC(=O)CC4CCNCC4)cc3)ncnc2cc1OCCCN1CCN(C)CC1" .
Solution: > 500 nM

Problem: If you can, please state the reported GI50 value of "COc1cc2c(-c3ccc(NC(=O)Cc4cccc(C(F)(F)F)c4)cc3)ncnc2cc1OCCCN1CCN(C)CC1" .
Solution: ≤ 200 nM

Problem: If you can, please state the reported GI50 value of "CCN1CCC(COc2cc3ncnc(-c4ccc(NC(=O)Cn5cc(C(C)(C)C)nn5)cc4)c3cc2OC)CC1" .
Solution: ≤ 200 nM

Problem: If you can, please state the reported GI50 value of "COc1cc2ncnc(-c3ccc(NC(=O)Cc4ccc(C(F)(F)F)cc4)cc3)c2cc1OCCCN1CC2(CNC2)C1" .
Solution: > 500 nM

Problem: If you can, please state the reported GI50 value of "COc1cc2ncnc(-c3ccc(NC(=O)Cc4ccc(C(F)(F)F)cc4)cc3)c2cc1OC1CN(C(=O)OC(C)(C)C)C1" .
Solution: 200 to 500 nM

Problem: If you can, please state the reported GI50 value of "CCN1CCC(COc2cc3ncnc(-c4ccc(NC(=O)Cc5ccc(Cl)c(C(F)(F)F)c5)cc4)c3cc2OC)CC1" .
Solution: ≤ 200 nM

All figures here come from patent US20260138959A1.
